All values here come from paper PMC8185074.

- Target Or System: HDAC6 (Homo sapiens, UniProt Q9UBN7)
- Construct: purchased Reaction Biology Corporation (assay run by the CRO)
- Sequence (Q9UBN7 1-1215): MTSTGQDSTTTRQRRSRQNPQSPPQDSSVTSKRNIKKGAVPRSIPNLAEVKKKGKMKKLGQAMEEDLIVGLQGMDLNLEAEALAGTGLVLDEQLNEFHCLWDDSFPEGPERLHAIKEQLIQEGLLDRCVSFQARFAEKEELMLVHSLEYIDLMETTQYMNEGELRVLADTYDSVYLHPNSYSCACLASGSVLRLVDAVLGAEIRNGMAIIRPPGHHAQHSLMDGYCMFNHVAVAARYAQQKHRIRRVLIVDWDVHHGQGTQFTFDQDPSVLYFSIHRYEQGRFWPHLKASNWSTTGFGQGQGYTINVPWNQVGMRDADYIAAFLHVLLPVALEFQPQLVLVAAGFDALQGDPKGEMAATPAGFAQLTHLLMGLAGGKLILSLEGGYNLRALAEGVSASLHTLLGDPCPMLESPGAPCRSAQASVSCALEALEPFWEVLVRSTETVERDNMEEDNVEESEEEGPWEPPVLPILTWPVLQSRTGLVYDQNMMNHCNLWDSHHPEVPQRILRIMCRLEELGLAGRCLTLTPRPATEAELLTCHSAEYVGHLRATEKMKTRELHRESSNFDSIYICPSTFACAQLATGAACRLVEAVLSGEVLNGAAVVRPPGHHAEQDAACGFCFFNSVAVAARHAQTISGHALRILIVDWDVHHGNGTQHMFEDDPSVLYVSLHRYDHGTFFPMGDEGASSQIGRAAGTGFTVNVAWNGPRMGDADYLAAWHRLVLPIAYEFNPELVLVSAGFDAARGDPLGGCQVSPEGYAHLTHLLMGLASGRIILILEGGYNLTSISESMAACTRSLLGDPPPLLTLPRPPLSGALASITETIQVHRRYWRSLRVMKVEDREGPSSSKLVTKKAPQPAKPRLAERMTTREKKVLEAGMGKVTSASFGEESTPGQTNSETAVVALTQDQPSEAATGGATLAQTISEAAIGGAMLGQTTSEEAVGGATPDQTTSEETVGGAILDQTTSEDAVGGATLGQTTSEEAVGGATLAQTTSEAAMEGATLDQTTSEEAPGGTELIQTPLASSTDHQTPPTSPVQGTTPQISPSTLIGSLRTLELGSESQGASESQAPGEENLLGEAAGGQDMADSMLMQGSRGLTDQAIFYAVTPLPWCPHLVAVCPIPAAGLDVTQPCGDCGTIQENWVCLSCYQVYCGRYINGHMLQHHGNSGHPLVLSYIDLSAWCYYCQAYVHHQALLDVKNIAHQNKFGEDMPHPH
- Test Protocol: HDAC6 inhibition, full IC50 measurement (Reaction Biology; fluorogenic p53 peptide RHKK(Ac)AMC)
- Type: biochemical
- Applied Conditions: Conc. 1.00E-05 M, t2
Peptide text beside a SMILES is read from it.
Readout: HDAC6 activity raw data (signal)
Form field (numeric): enter value without unit.

Ask: Fill blank: measured HDAC6 activity raw data (signal) of the compound CC(C)[C@@H]1NC(=O)[C@H](CCCNC(=N)N)NC(=O)[C@@H](CC(=O)O)NC(=O)[C@H](CO)NC(=O)[C@@H](CO)NC(=O)[C@@H](CCC(=O)O)NC(=O)[C@H](Cc2ccc(O)cc2)NC(=O)[C@H](CCCCCS)NC1=O [des4.2.0, SHA-Tyr-dGlu-dSer-Ser-dAsp-Arg-Val] (HELM PEPTIDE1{R.V.[O=C([C@H](CCCCCS)N[*:1])[*:2]].Y.[dE].[dS].S.[dD]}$PEPTIDE1,PEPTIDE1,1:R1-8:R2$$$V2.0) is ____.
Reply: -3082

Ask: Another compound to look at: CSCC[C@H]1NC(=O)[C@@H](CO)NC(=O)[C@H](CC(N)=O)NC(=O)[C@H](CC(=O)O)NC(=O)[C@@H]([C@H](C)O)NC(=O)[C@H](Cc2c[nH]c3ccccc23)NC(=O)[C@H](CCCCCS)NC(=O)[C@H](CCCCN)NC(=O)[C@@H](CC(=O)O)NC1=O [des2.1.1, SHA-Trp-dThr-Asp-Asn-dSer-dMet-dAsp-Lys] (HELM PEPTIDE1{D.N.[dS].[dM].[dD].K.[O=C([C@H](CCCCCS)N[*:1])[*:2]].W.[dT]}$PEPTIDE1,PEPTIDE1,1:R1-9:R2$$$V2.0)
Reply: -1621
